Tgt: UniProtKB O14842
Sequence (O14842 whole entry): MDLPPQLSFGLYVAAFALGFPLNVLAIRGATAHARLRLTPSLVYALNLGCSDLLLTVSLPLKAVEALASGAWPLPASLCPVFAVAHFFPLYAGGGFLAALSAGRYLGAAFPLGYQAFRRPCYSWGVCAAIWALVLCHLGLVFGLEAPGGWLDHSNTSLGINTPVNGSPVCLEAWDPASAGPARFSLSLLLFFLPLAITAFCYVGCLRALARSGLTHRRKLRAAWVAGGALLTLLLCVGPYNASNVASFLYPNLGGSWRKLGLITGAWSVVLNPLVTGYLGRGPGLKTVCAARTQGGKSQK
Procedure details: FLIPR assay, agonist-induced calcium mobilization
Assay type: cell-based
Set-up: expressed in transfected cells
Measurement parameters: GPR40/CHO NFAT BLA cells
Provide the recorded EC50 for the entries that follow.
Lab book: enter the figure in nM, no units written.

I'm curious: which EC50 was measured for CC1(C)CC(c2cccnc2C(F)(F)F)c2cc(COc3cc4c(cn3)[C@H]3[C@@H](C4)[C@@H]3C(=O)O)c(F)cc21 (stereo partly shown) [Example 26] tested on UniProtKB O14842?
14.1

I'm curious: which EC50 was measured for O=C(O)[C@H]1[C@@H]2Cc3cc(OCc4ccc5c(C6CC6)cn(-c6ccccc6C(F)(F)F)c5c4)ncc3[C@@H]21 [Example 37] tested on UniProtKB O14842?
42.5

I'm curious: which EC50 was measured for CC1(C)CC(c2ccccc2C(F)(F)F)c2cc(COc3cc4c(cn3)[C@H]3[C@@H](C4)[C@@H]3C(=O)O)ccc21 (stereo partly shown) [Example 3] tested on UniProtKB O14842?
9.28

I'm curious: which EC50 was measured for O=C(O)[C@H]1[C@@H]2Cc3cc(OCc4ccc5ccn(-c6ccccc6C(F)(F)F)c5c4)ncc3[C@@H]21 [Example 34] tested on UniProtKB O14842?
33.9

I'm curious: which EC50 was measured for O=C(O)[C@H]1[C@@H]2Cc3cc(OCc4ccc5c(Br)cn(-c6ccccc6C(F)(F)F)c5c4)ncc3[C@@H]21 [Example 36] tested on UniProtKB O14842?
26.9

I'm curious: which EC50 was measured for C=C(C)CCOc1ccc(C2CCCc3ccc(COc4cc5c(cn4)[C@H]4[C@@H](C5)[C@@H]4C(=O)O)cc32)c(C)n1 (stereo partly shown) [Example 31] tested on UniProtKB O14842?
51.9

I'm curious: which EC50 was measured for COc1ncccc1C1CCC(C)(C)c2cc(F)c(COc3cc4c(cn3)[C@H]3[C@@H](C4)[C@@H]3C(=O)O)cc21 (stereo partly shown) [Example 27] tested on UniProtKB O14842?
7.22

====

Tgt: UniProt:O14842
Procedure details: Inositol Phosphate Turnover (IP1) Assay
Format: cell-based
Set-up: expressed in transfected cells; host or cells: HEK cells (stably expressing the aequorin reporter)
Measurement parameters: HEK cells stably expressing human GPR40, CisBio IP-One kit
Provide the recorded pEC50 for the entries that follow.
Just so you know, pEC50 here is -log10 of the concentration in molar units; reply with that number alone.

What value of measured pEC50 is listed for CC1(C)CC(c2ccncc2C(F)(F)F)c2cc(COc3cc4c(cn3)[C@H]3[C@@H](C4)[C@@H]3C(=O)O)c(F)cc21 (stereo partly drawn) ?
8.16

What value of measured pEC50 is listed for O=C(O)[C@H]1[C@@H]2Cc3cc(OCc4ccc5c(c4)N(c4ccccc4C(F)(F)F)CC5)ncc3[C@@H]21 ?
7.58

What value of measured pEC50 is listed for CN1CC(C)(C)c2cc(F)c(COc3cc4c(cn3)[C@H]3[C@@H](C4)[C@@H]3C(=O)O)cc2[C@H]1c1ccccc1C(F)(F)F ?
7.68

====

Tgt: UniProt:O14842
Procedure details: FLIPR assay, agonist-induced calcium mobilization
Type: cell-based
Parameters: expressed in transfected cells
Measurement parameters: GPR40/CHO NFAT BLA cells
Attribute measured: pEC50
Just so you know, pEC50 here is -log10 of the concentration in molar units; reply with that number alone.

What value of measured pEC50 is listed for O=C(O)[C@H]1[C@@H]2Cc3cc(OCc4cc5c(cc4F)CCCC5c4ccccc4C(F)(F)F)ncc3[C@@H]21 (some centres unmarked) ?
7.68

What value of measured pEC50 is listed for CC1(C)CCN(c2ccccc2C(F)(F)F)c2cc(COc3cc4c(cn3)[C@H]3[C@@H](C4)[C@@H]3C(=O)O)c(F)cc21 ?
8.08

What value of measured pEC50 is listed for CC1(C)CC(c2ccccc2C(F)(F)F)c2cc(COc3cc4c(cn3)[C@H]3[C@@H](C4)[C@@H]3C(=O)O)c(F)cc21 (single isomer, unassigned) [Example 23] ?
7.70

What value of measured pEC50 is listed for O=C(O)[C@H]1[C@@H]2Cc3cc(OCc4ccc5c(c4)N(c4ccccc4)CC5)ncc3[C@@H]21 ?
7.27

What value of measured pEC50 is listed for O=C(O)[C@H]1[C@@H]2Cc3cc(OCc4ccc5c(c4)C(c4ccccc4C(F)(F)F)CCC5)ncc3[C@@H]21 (single isomer, unassigned) ?
7.75

What value of measured pEC50 is listed for CC1(C)CC(c2ccccc2S(C)(=O)=O)c2cc(COc3cc4c(cn3)[C@H]3[C@@H](C4)[C@@H]3C(=O)O)ccc21 (some centres unmarked) ?
7.65

What value of measured pEC50 is listed for CC1(C)C=C(c2ccccc2C(F)(F)F)c2cc(COc3cc4c(cn3)[C@H]3[C@@H](C4)[C@@H]3C(=O)O)ccc21 ?
7.86

What value of measured pEC50 is listed for CC1(C)CC(c2ccccc2C(F)(F)F)c2cc(COc3cc4c(cn3)[C@H]3[C@@H](C4)[C@@H]3C(=O)O)c(F)cc21 (single isomer, unassigned) [Example 22] ?
7.92

What value of measured pEC50 is listed for CC1(C)CC(=O)N(c2ccccc2C(F)(F)F)c2cc(COc3cc4c(cn3)[C@H]3[C@@H](C4)[C@@H]3C(=O)O)c(F)cc21 ?
7.35

What value of measured pEC50 is listed for O=C(O)[C@H]1[C@@H]2Cc3cc(OCc4ccc5c(c4)C(c4ccccc4C(F)(F)F)CC5c4ccccc4)ncc3[C@@H]21 (some centres unmarked) [Example 19] ?
7.81

What value of measured pEC50 is listed for COc1nccc(C)c1C1CC(C)(C)c2ccc(COc3cc4c(cn3)[C@H]3[C@@H](C4)[C@@H]3C(=O)O)cc21 (some centres unmarked) ?
8.07

What value of measured pEC50 is listed for CC1(C)CN(c2ccccc2C(F)(F)F)c2cc(COc3cc4c(cn3)[C@H]3[C@@H](C4)[C@@H]3C(=O)O)c(F)cc21 ?
8.05

What value of measured pEC50 is listed for CC1(c2ccccc2C(F)(F)F)OCc2ccc(COc3cc4c(cn3)[C@H]3[C@@H](C4)[C@@H]3C(=O)O)cc21 (some centres unmarked) ?
7.78

What value of measured pEC50 is listed for CC1(C)OCC2(CO1)CC(c1ccccc1C(F)(F)F)c1cc(COc3cc4c(cn3)[C@H]3[C@@H](C4)[C@@H]3C(=O)O)ccc12 (some centres unmarked) ?
7.91

What value of measured pEC50 is listed for CC1(C)CC(c2ccccc2)c2cc(COc3cc4c(cn3)[C@H]3[C@@H](C4)[C@@H]3C(=O)O)ccc21 (some centres unmarked) ?
7.77

What value of measured pEC50 is listed for CC1(C)CCC(c2ccccc2C(F)(F)F)c2cc(COc3cc4c(cn3)[C@H]3[C@@H](C4)[C@@H]3C(=O)O)c(F)cc21 (some centres unmarked) ?
7.20

What value of measured pEC50 is listed for O=C(O)[C@H]1[C@@H]2Cc3cc(OCc4cc5c(cc4F)C(F)(F)CC5c4ccccc4C(F)(F)F)ncc3[C@@H]21 (single isomer, unassigned) [Example 70] ?
8.22

What value of measured pEC50 is listed for Cc1ccccc1N1CCCc2ccc(COc3ccc4c(c3)C[C@H]3[C@H](C(=O)O)[C@@H]43)cc21 ?
7.61

What value of measured pEC50 is listed for O=C(O)[C@H]1[C@@H]2Cc3cc(OCc4ccc5c(c4)N(c4ccccn4)CCC5)ccc3[C@@H]21 ?
7.54

What value of measured pEC50 is listed for Cn1cnc2cccc(C3CC(C)(C)c4ccc(COc5cc6c(cn5)[C@H]5[C@@H](C6)[C@@H]5C(=O)O)cc43)c21 (some centres unmarked) ?
8.14

What value of measured pEC50 is listed for CC1CC(c2ccccc2C(F)(F)F)c2cc(COc3cc4c(cn3)[C@H]3[C@@H](C4)[C@@H]3C(=O)O)ccc21 (some centres unmarked) ?
7.68

What value of measured pEC50 is listed for Cc1c(COc2cc3c(cn2)[C@H]2[C@@H](C3)[C@@H]2C(=O)O)ccc2c1C(c1ccccc1C(F)(F)F)CCC2 (some centres unmarked) ?
7.41

What value of measured pEC50 is listed for CC1(C)CC(c2ccccc2Cl)c2cc(COc3cc4c(cn3)[C@H]3[C@@H](C4)[C@@H]3C(=O)O)ccc21 (some centres unmarked) ?
7.75

What value of measured pEC50 is listed for CC1CCc2ccc(COc3cc4c(cn3)[C@H]3[C@@H](C4)[C@@H]3C(=O)O)cc2C1c1ccccc1C(F)(F)F (some centres unmarked) ?
8.06

What value of measured pEC50 is listed for O=C(O)[C@H]1[C@@H]2Cc3cc(OCc4ccc5c(c4)C(c4ccccc4C(F)(F)F)CC54COC4)ncc3[C@@H]21 (some centres unmarked) ?
7.48

What value of measured pEC50 is listed for O=C(O)[C@H]1[C@@H]2Cc3cc(OCc4ccc5c(c4)C(c4ccccc4C(F)(F)F)OCC5)ncc3[C@@H]21 (some centres unmarked) ?
7.36

# credit: patent US10000454B2
